biological target: HLA-A*03 (human); experiment: competition with 125I-labelled probe peptide for purified HLA, gel filtration; settings: remark: other sources report otherwise
recorded-metric: IC50 (nM)
Numbers only here, please. The scale is nM.

Answered cases to consult:
AFTFSPTYK (modifications not checked) [peptide 20.0130 (HBV pol 655, …)]; 42
SVVRRAFPH (modifications not checked) [peptide 20.0131 (HBV pol 524, …)]; 100

Could you now consider this next binder?
INPUT: What value of IC50 has been reported for the following binder? VSFGVWIR (modifications not checked) [peptide 26.0023 (HBV X NUC FUS 296, VSFGVWIR)]
OUTPUT: 2750
